I'd be grateful if you could share measured log10 IC50 for these entries.
- tgt: Methionine aminopeptidase (Escherichia coli K-12, UniProt P0AE18)
- Sequence (P0AE18 whole entry): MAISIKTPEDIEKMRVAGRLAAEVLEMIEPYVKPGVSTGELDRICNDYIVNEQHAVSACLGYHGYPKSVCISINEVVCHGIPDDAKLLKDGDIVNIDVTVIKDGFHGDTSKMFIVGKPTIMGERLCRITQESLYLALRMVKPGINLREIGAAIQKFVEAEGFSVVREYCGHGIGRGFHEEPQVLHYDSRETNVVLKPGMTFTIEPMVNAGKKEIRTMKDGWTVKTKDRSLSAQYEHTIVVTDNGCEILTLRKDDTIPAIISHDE
Answers are given as log10 of IC50 in nM.

input: Find the measured log10 IC50 of c1ccc(-c2nc3ccc[nH]c-3n2)nc1 and report it.
output: 2.02

input: Find the measured log10 IC50 of c1ccc(-c2nc3ccccc3[nH]2)nc1 and report it.
output: 2.76

input: Find the measured log10 IC50 of Cc1ccc2[nH]c(-c3ccccn3)nc2c1 and report it.
output: 3.32

input: Find the measured log10 IC50 of CC(C)(C)c1ccc2nc(-c3cscn3)[nH]c2c1 and report it.
output: 3.59

input: Find the measured log10 IC50 of O=c1cccc(-c2nc3ccccc3[nH]2)[nH]1 and report it.
output: 3.13

input: Find the measured log10 IC50 of c1cc2nc(-c3cscn3)[nH]c2cn1 and report it.
output: 3.24

input: Find the measured log10 IC50 of c1ccc2[nH]c(-c3cnccn3)nc2c1 and report it.
output: 3.66

input: Find the measured log10 IC50 of c1ccc(Cn2c(-c3ccccn3)nc3ccccc32)cc1 and report it.
output: 3.00

input: Find the measured log10 IC50 of c1ccc(-c2nc3cc[nH]cc-3n2)nc1 and report it.
output: 2.74

input: Find the measured log10 IC50 of Nc1ccc2nc(-c3ccccn3)[nH]c2c1 and report it.
output: 2.99

input: Find the measured log10 IC50 of Cc1cc2nc(-c3ccccn3)[nH]c2cc1C and report it.
output: 3.39

input: Find the measured log10 IC50 of c1ccc2[nH]c(Nc3nccs3)nc2c1 and report it.
output: 2.73
